Biological target: Voltage-dependent N-type calcium channel subunit alpha-1B (Homo sapiens, UniProt Q00975)
Sequence (Q00975 whole entry): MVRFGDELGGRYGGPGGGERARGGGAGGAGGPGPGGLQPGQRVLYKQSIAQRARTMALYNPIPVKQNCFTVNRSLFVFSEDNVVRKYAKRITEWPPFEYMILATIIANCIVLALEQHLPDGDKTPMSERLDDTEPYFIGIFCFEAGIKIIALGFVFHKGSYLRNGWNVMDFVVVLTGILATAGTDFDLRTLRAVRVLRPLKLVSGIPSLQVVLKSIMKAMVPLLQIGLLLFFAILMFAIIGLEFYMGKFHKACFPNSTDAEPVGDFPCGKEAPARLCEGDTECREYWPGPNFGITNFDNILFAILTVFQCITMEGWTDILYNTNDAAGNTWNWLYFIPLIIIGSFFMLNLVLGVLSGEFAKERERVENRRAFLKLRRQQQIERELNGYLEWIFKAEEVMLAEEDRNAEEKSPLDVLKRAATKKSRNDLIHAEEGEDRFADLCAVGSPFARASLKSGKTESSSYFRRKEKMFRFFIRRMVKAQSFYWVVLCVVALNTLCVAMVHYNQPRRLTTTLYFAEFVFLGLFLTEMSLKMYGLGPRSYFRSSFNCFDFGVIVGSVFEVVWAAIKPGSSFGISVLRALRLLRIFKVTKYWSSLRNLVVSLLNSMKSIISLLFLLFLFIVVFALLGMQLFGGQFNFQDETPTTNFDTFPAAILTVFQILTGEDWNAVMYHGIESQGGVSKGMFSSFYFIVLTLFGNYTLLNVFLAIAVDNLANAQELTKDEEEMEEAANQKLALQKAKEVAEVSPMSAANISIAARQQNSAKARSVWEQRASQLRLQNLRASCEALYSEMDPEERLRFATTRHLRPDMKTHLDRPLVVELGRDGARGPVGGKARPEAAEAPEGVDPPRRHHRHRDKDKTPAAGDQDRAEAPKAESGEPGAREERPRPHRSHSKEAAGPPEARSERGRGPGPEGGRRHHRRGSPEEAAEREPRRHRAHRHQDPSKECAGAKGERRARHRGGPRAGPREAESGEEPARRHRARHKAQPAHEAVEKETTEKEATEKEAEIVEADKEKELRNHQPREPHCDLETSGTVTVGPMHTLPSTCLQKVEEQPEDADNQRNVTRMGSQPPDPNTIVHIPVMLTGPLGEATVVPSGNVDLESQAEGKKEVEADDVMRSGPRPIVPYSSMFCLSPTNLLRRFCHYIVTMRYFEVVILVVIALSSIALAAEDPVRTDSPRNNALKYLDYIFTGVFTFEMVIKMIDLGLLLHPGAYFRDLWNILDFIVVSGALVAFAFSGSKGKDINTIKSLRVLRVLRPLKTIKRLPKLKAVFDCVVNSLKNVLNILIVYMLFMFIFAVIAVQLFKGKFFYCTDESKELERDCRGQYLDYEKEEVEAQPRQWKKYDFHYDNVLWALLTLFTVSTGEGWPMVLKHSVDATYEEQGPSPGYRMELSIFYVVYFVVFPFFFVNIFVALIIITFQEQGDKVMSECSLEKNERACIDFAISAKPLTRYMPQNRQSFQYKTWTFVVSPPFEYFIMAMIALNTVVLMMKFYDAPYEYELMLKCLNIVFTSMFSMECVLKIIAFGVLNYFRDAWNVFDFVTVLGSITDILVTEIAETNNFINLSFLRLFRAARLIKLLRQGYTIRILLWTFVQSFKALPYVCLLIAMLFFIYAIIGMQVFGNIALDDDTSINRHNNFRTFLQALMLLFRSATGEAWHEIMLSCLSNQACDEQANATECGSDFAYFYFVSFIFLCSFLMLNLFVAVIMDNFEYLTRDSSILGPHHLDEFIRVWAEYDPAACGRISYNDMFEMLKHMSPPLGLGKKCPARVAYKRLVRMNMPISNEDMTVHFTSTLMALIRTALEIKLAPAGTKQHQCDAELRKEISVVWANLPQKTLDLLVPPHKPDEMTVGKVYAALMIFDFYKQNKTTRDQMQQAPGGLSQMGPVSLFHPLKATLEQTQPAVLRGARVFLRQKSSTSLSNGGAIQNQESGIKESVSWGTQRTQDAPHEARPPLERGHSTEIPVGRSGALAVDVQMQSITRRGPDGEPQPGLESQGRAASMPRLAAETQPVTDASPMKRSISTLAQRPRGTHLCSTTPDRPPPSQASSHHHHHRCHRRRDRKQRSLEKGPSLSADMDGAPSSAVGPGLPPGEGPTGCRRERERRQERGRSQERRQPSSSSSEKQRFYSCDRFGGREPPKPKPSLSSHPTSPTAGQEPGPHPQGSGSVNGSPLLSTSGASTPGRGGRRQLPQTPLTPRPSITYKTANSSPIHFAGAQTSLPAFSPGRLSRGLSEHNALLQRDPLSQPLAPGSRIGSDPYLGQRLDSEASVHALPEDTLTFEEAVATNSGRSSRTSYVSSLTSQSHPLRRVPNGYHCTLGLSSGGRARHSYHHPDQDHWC
Assay: Inhibition of N-type Cav2.2 channel (unknown origin) by FLIPR assay
Settings: read-out: IC50
measured endpoint: IC50 (nM)

// known answers, use as guide
smiles text | IC50 / nM
CN[C@@H](Cc1ccccc1)C(=O)N[C@H]1CC[C@@H]2CN(S(=O)(=O)c3ccc(C(F)(F)F)cc3)C[C@@H]21 | 860
CC(C)C[C@H](NS(C)(=O)=O)C(=O)N[C@@H]1CC[C@H]2CN(Cc3cccc(C(F)(F)F)c3)C[C@H]21 | 2840
CN[C@@H](CC(C)(C)C)C(=O)N[C@H]1CC[C@@H]2CN(S(=O)(=O)c3ccc(C(F)(F)F)cc3)C[C@@H]21 | 790
CC(C)C[C@H](N)C(=O)N[C@@H]1CC[C@H]2CN(S(=O)(=O)c3cccc(C(F)(F)F)c3)C[C@H]21 | 1060

1 = CCC[C@H](NC)C(=O)N[C@H]1CC[C@@H]2CN(S(=O)(=O)c3ccc(C(F)(F)F)cc3)C[C@@H]21
2 = CN[C@@H](CC(C)C)C(=O)N[C@@H]1CC[C@H]2CN(Cc3cccc(C(F)(F)F)c3)C[C@H]21
Query block: Could you tell me which of 1 and 2 has the lower IC50 reading? Refer to your chosen entry by its label in the reply.
Result block: 1

From: ChEMBL document CHEMBL2412957
